Molecular target: ATP-dependent 6-phosphofructokinase (Trypanosoma brucei brucei)
Assay: qHTS Validation Assay to Find Inhibitors of T. brucei phosphofructokinase (AID 485368)
Settings: T. brucei PFK enzyme assay, qHTS 7-point titration; series mostly up to 57.5 µM
Inconclusive results are not listed. The source made the active and inactive calls. Calls come from the whole dose curve; as a rule, active = well fitted inhibition curve with a large enough effect; inconclusive = small, poorly fitted or top-dose-only effect, or effect the other way; inactive = flat fitted curve, though single readings scatter.
Log the outcome using a class from active, inactive

# COMPOUND, CLASS
rows = [
    ("CCC1(C2=NCCN2)Cc2ccccc2O1 (stereo unspecified)", "inactive"),
    ("C[C@@H]1O[C@@H](O[C@H]2C[C@@H](O)[C@]3(CO)[C@H]4[C@H](O)C[C@]5(C)[C@@H](C6=CC(=O)OC6)CC[C@]5(O)[C@@H]4CC[C@]3(O)C2)[C@H](O)[C@H](O)[C@H]1O", "inactive"),
    ("O=c1c(O)c(-c2ccc(O)c(O)c2)oc2cc(O)cc(O)c12", "active"),
    ("CC(CCc1ccccc1)NC(C)C(O)c1ccc(O)cc1 (stereo unspecified)", "inactive"),
    ("CCCN1CCC[C@@H]2Cc3nc(N)ncc3C[C@H]21", "inactive"),
]

Request: // param item: `Cc1cccc(C)c1NC(=O)CN1CCCC1=O` ; yields the recorded call
Response: inactive

Request: // param item: `CC(=O)[C@H]1CC[C@H]2[C@@H]3CC[C@H]4C[C@H](O)CC[C@]4(C)[C@H]3C(=O)C[C@]12C` ; yields the recorded call
Response: inactive

Request: // param item: `c1ccc(C2CC2)c(OCC2=NCCN2)c1` ; yields the recorded call
Response: inactive

---

Target: Chromobox protein homolog 1 (Homo sapiens) (UniProt P83916)
Sequence (P83916 whole entry, looked up): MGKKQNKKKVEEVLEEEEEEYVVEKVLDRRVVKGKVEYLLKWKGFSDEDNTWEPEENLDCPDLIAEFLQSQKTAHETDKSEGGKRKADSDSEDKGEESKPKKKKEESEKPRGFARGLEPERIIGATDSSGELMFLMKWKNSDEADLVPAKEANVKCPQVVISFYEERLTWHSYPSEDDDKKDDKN
Experiment: qHTS Validation Assay for Inhibitors of HP1-beta Chromodomain Interactions with Methylated Histone Tails (AID 488953); note: nearly all actives have a fitted effect of over 50% in size
Settings: HP1-beta chromodomain / methylated histone peptide binding assay; series mostly up to 114 µM
Inconclusive results are not listed. Active and inactive are the calls of the source. Calls follow the shape of the dose curve; as a rule, active = well fitted inhibition curve with a large enough effect; inconclusive = small, poorly fitted or top-dose-only effect; inactive = no such curve, though single readings can be large or run the other way.
Log the outcome using a class from true (1) (active), false (0) (inactive)

# MOLECULE, CLASS
measured = [
    ("COC[C@H]1OC(=O)c2coc3c2[C@@]1(C)C1=C(C3=O)C2CCC(=O)[C@@]2(C)C[C@H]1OC(C)=O (some centres undefined)", "false (0)"),
    ("Cc1cc2c(C(C)C)c(O)c(O)c(C=O)c2c(O)c1-c1c(C)cc2c(C(C)C)c(O)c(O)c(C=O)c2c1O", "true (1)"),
    ("Cc1cccc(C)c1NC1=NCCCS1", "false (0)"),
    ("NCC1(CC(=O)O)CCCCC1", "false (0)"),
    ("CN1C[C@H](CNC(=O)OCc2ccccc2)C[C@@H]2c3cccc4c3c(cn4C)C[C@H]21", "true (1)"),
    ("COc1ccc(Cc2nccc3cc(OC)c(OC)cc23)cc1OC", "true (1)"),
]

Request: // param item: `CCCN1CCC[C@@H]2Cc3[nH]ncc3C[C@H]21` ; yields the recorded call
Response: false (0)

Request: // param item: `CC(C)C(=O)Nc1ccc([N+](=O)[O-])c(C(F)(F)F)c1` ; yields the recorded call
Response: false (0)

Request: // param item: CC(CCc1ccccc1)NC(C)C(O)c1ccc(O)cc1 (centres undefined) ; yields the recorded call
Response: false (0)

---

Listing of recorded efficacy by entry.
Details: Ebola virus entry assay, green fluorescence channel
Results with a measured potency or affinity are listed apart.
Kindly answer with a numeric value in %, unit omitted.

# COMPOUND, ENDPOINT_RESULT
data = [
    ("Cn1ccc2cc3c(cc21)CCN3C(=O)Nc1cccnc1", -35.6),
    ("Cc1onc(-c2ccccc2Cl)c1C(=O)N[C@@H]1C(=O)N2[C@@H]1SC(C)(C)[C@@H]2C(=O)O", 13.5),
    ("C[C@H]1O[C@@H](O[C@H]2[C@@H](O)C[C@H](O[C@H]3[C@@H](O)C[C@H](O[C@H]4CC[C@@]5(C)[C@H](CC[C@@H]6[C@@H]5CC[C@]5(C)[C@@H](C7=CC(=O)OC7)CC[C@]65O)C4)O[C@@H]3C)O[C@@H]2C)C[C@H](O)[C@@H]1O", -46.6),
]

Request: Dear colleague, I am looking for the recorded efficacy of the following compound: O=C1NCN(c2ccccc2)C12CCN(CC1COc3ccccc3O1)CC2 (centres undefined)
Response: -42.1

---

Assay: HTS Assay for Allosteric Antagonists of the Human D2 Dopamine Receptor: Hit Validation in HTRF (AID 624455);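 note: stable D1 dopamine receptor cell line scored for blocking the D1 response; % is set by controls: 0 for no effect and ±100 for the full control effect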
Conditions: Cells stably expressing D1 dopamine receptor, inhibition mode; series mostly up to 46.1 µM
Results filed as inconclusive are left out. Active and inactive are the calls of the source. Calls come from the whole dose curve; as a rule, active = well fitted inhibition curve with a large enough effect; inconclusive = small, poorly fitted or top-dose-only effect; inactive = no such curve, though single readings can be large or run the other way.
REPORTED_ENDPOINT: outcome

// solved cases for outcome follow
# MOLECULE, ENDPOINT_RESULT
measured = [
    ("C[C@@H]1O[C@@H](O[C@H]2C[C@@H](O)[C@]3(CO)[C@H]4[C@H](O)C[C@]5(C)[C@@H](C6=CC(=O)OC6)CC[C@]5(O)[C@@H]4CC[C@]3(O)C2)[C@H](O)[C@H](O)[C@H]1O", "inactive"),
    ("Nc1ccncc1", "inactive"),
    ("c1ccc2c(c1)OCC(C1=NCCN1)O2 (configuration not stated)", "inactive"),
    ("O=c1[nH]c2ccccc2n1CCCN1CCC(n2c(=O)[nH]c3cc(Cl)ccc32)CC1", "inactive"),
    ("COc1ccccc1N1CCNCC1", "inactive"),
    ("CC[N+](C)(C)c1cccc(O)c1", "inactive"),
]

Request: Dear colleague, I am looking for the recorded outcome of the following molecule: CC(CCc1ccccc1)NC(C)C(O)c1ccc(O)cc1 (configuration not stated)
Response: inactive

Request: Dear colleague, I am looking for the recorded outcome of the following molecule: `Cc1cccc(C)c1NC(=O)CN1CCCC1=O`
Response: inactive

Request: Dear colleague, I am looking for the recorded outcome of the following molecule: `Cc1ncc(CNC(=O)N(CCCl)N=O)c(N)n1`
Response: inactive

Request: Dear colleague, I am looking for the recorded outcome of the following molecule: NCC(CC(=O)O)c1ccc(Cl)cc1 (configuration not stated)
Response: inactive

Request: Dear colleague, I am looking for the recorded outcome of the following molecule: `NCC1(CC(=O)O)CCCCC1`
Response: inactive

Request: Dear colleague, I am looking for the recorded outcome of the following molecule: CNCC(O)c1ccc(O)cc1 (configuration not stated)
Response: inactive

---

Assay: Quantitative High-Throughput drug screen in 47 multiple myeloma cell lines against the NCATS MIPE library collection: LP1_DSMZ cell viability assay (AID 1918982); note: nearly all actives have a fitted effect of over 35% in size
Settings: LP1 myeloma viability, CellTiter-Glo ATP luminescence, 48 h; series mostly up to 45.8 µM
Results filed as inconclusive are left out. Calls of active or inactive are those of the source. Calls come from the whole dose curve; as a rule, active = well fitted cell-killing curve with a large enough effect; inconclusive = small, poorly fitted or top-dose-only effect, or effect the other way; inactive = no such curve, though single readings can be large or run the other way.
Log the outcome using a class from active, inactive

The examples below pair each entry with its known result.
# MOLECULE, CLASS
measured = [
    ("O=C(O)C(=O)c1cn(Cc2ccccc2)c2ccc(-c3ccc(OC(F)(F)F)cc3)cc12", "inactive"),
    ("COc1ccc(C(CN(C)C)C2(O)CCCCC2)cc1 (stereo unspecified)", "inactive"),
    ("CC1=C2C[C@@H]3[C@@H](CC=C4C[C@@H](O)CC[C@@]43C)[C@@H]2CC[C@]12O[C@H]1C[C@H](C)CN[C@H]1[C@H]2C", "inactive"),
    ("Cc1cccc(C)c1NC(=O)CN1CCCC1=O", "inactive"),
    ("CN(C)CCc1ccc(O)cc1", "inactive"),
    ("CN1CCN(C(=O)O[C@H]2c3nccnc3C(=O)N2c2ccc(Cl)cn2)CC1", "inactive"),
    ("N[C@@H](Cc1ccc(N(CCCl)CCCl)cc1)C(=O)O", "active"),
    ("Cc1cc(SCc2sc(-c3ccc(C(F)(F)F)c(F)c3)nc2C)ccc1OCC(=O)O", "active"),
    ("CNCC(O)c1ccc(O)cc1 (stereo unspecified)", "inactive"),
    ("O=C1CC[C@@]2(O)[C@H]3Cc4ccc(O)c5c4[C@@]2(CCN3CC2CC2)[C@H]1O5", "inactive"),
]

Request: // param item: `C=C(C)[C@H]1Cc2c(ccc3c2O[C@@H]2COc4cc(OC)c(OC)cc4[C@@H]2C3=O)O1` ; yields the recorded call
Response: active

Request: // param item: `Cc1sc2c(c1C)C(c1ccc(Cl)cc1)=N[C@@H](CC(=O)OC(C)(C)C)c1nnc(C)n1-2` ; yields the recorded call
Response: active

---

Test system: HaCat
Test: Cytotoxic Profiling of Annotated Libraries Using Quantitative High-Throughput Screening (AID 1296008); note: % is set by controls: 0 for no effect and ±100 for the full control effect; nearly all actives have a fitted effect of over 60% in size
Settings: Five cell lines viability, CellTiter-Glo ATP luminescence, 48-72 h; active compounds read low
Inconclusive results are not listed.
Listing of recorded max response by entry.
Kindly answer with a numeric value in %, unit omitted.

// solved cases for max response follow
# COMPOUND, ENDPOINT_RESULT
measured = [
    ("N[C@@H](Cc1ccc(N(CCCl)CCCl)cc1)C(=O)O", -1),
    ("CC(=O)Nc1cc([As](=O)(O)O)ccc1O", -14.2),
    ("COc1ccc2c(c1OC)CN1CCc3cc4c(cc3C1C2)OCO4 (configuration not stated)", 1.37),
    ("COC[C@H]1OC(=O)c2coc3c2[C@@]1(C)C1=C(C3=O)C2CCC(=O)[C@@]2(C)C[C@H]1OC(C)=O (some centres not stated)", -21.4),
]

Request: Record lookup: for HaCat, what max response belongs to CC(C)=CC1C(C(=O)OCc2cccc(Oc3ccccc3)c2)C1(C)C (configuration not stated) ?
Response: 2.03

Request: Record lookup: for HaCat, what max response belongs to `NN=C(N)N` ?
Response: -1.38
